Origin of values: patent EP0992240A1

# TEST_PROTOCOL: Absorption upon intranasal administration to rats
# Format: in vivo, Male wistar rats
# EXPERIMENTAL_CONDITIONS: male, Wistar, rat, in vivo, inhaled or intranasal, intranasal, Dose 1.0 mg/kg
READOUT_LABEL: Tmax

Challenge: Data request, read-out Tmax, for CCCc1nn(C)c2c(=O)[nH]c(-c3cc(S(=O)(=O)N4CCN(C)CC4)ccc3OCC)nc12.O=C(O)CC(O)(CC(=O)O)C(=O)O [sildenafil, reference compound]
Response given: 12 to 30 min

---

# TEST_PROTOCOL: Absorption by percutaneous administration in rats
# Assay type: in vivo
# EXPERIMENTAL_CONDITIONS: rat, plasma, topical, hairless rats, Dose 10 mg/kg
READOUT_LABEL: MRT (h)
Just the number please, in h, no unit attached.

Challenge: Data request, read-out MRT, for CS(=O)(=O)O.O=c1c(Cc2cccnc2)cn2c3cc(Br)ccc3c3cc(OCCCO)cc1c32 [Example 52]
Response given: 8.5

---

# TARGET_OR_SYSTEM: PDE type V (Canis lupus familiaris, UniProt O77746)
# Construct: By elution with a sodium chloride gradient (0 - 0.4 M), PDE types V and III were separated from the other isozymes; from tissue; host or cells: canine aorta
# TEST_PROTOCOL: PDE inhibiting activity, type V
# Format: biochemical, dog
# EXPERIMENTAL_CONDITIONS: PDE purified from canine aorta; 1 µM substrate cGMP or cAMP; read-out: Inhibition Activity IC50 (µM) Type V
Hi! Could you tag entries with IC50 below 0.06 µM as y, and those at or above as n? Much appreciated.

COMPOUND | DISCRETE_LABEL
CC(C)OC(=O)COc1cc2c(=O)c(Cc3cccnc3)cn3c4ccc(Br)cc4c(c1)c23 [Example 4] | y
CC(C)OC(=O)COc1cc2c(=O)ccn3c4ccc(Br)cc4c(c1)c23 [Example 22] | y
CC(=O)Oc1cc2c(=O)c(Cc3cccnc3)cn3c4ccccc4c(c1)c23 [Example 42] | n

Challenge: Consider O=c1ccn2c3ccc(Br)cc3c3cc(OCc4ccccc4)cc1c32 [Example 26] . Does its IC50 lie strictly below 0.06 µM?
Response given: y

Challenge: Consider CCOC(=O)COc1cc2c(=O)ccn3c4ccc(Br)cc4c(c1)c23 [Example 23] . Does its IC50 lie strictly below 0.06 µM?
Response given: y

Challenge: Consider CCCC(=O)COc1cc2c(=O)ccn3c4ccc(Br)cc4c(c1)c23 [Example 29] . Does its IC50 lie strictly below 0.06 µM?
Response given: y

Challenge: Consider COc1cc2c(=O)c(C)cn3c4ccc(Br)cc4c(c1)c23 [Example 13] . Does its IC50 lie strictly below 0.06 µM?
Response given: n

Challenge: Consider O=c1c(Cc2ccccc2)cn2c3cc(Br)ccc3c3cc(O)cc1c32 [Example 40] . Does its IC50 lie strictly below 0.06 µM?
Response given: y

---

# TARGET_OR_SYSTEM: PDE type V (Canis lupus familiaris)
# Construct: By elution with a sodium chloride gradient (0 - 0.4 M), PDE types V and III were separated from the other isozymes; from tissue; host or cells: canine aorta
# TEST_PROTOCOL: PDE inhibiting activity, type V
# Type: biochemical, dog
# EXPERIMENTAL_CONDITIONS: PDE purified from canine aorta; 1 µM substrate cGMP or cAMP; read-out: Inhibition Activity IC50 (µM) Type V
READOUT_LABEL: IC50 (µM)
Just the number please, in µM, no unit attached.

These solved cases illustrate the format of a correct answer.
COMPOUND | READOUT_LABEL | UOM | ENDPOINT_VALUE
COc1cc2c(=O)c(Cc3cccnc3)cn3c4cc(Br)ccc4c(c1)c23 [Example 30] | IC50 | µM | 0.0047
CCOC(=O)COc1cc2c(=O)c(C)cn3c4ccc(Br)cc4c(c1)c23 [Example 17] | IC50 | µM | 0.0035
CC(C)(C)OC(=O)COc1cc2c(=O)c(Cc3cccnc3)cn3c4cc(Br)ccc4c(c1)c23 [Example 32] | IC50 | µM | 0.091
CC(=O)Oc1ccc2c3cccc4c(=O)c(Cc5cccnc5)cn(c2c1)c43 [Example 45] | IC50 | µM | 0.06
O=c1ccn2c3ccc(Br)cc3c3cc(O)cc1c32 [Example 20] | IC50 | µM | 0.03
O=c1c(Cc2cccnc2)cn2c3ccccc3c3cc(O)cc1c32 [Example 41] | IC50 | µM | 0.36
COc1cc2c(=O)ccn3c4ccc(Br)cc4c(c1)c23 [Example 19] | IC50 | µM | 0.05
CS(=O)(=O)O.O=c1c(Cc2cccnc2)cn2c3cc(Br)ccc3c3cc(OCCCO)cc1c32 [Example 52, methanesulfonate] | IC50 | µM | 0.0057

Challenge: Data request, read-out IC50, for Cc1cn2c3ccc(Br)cc3c3cc(O)cc(c1=O)c32 [Example 14]
Response given: 0.1

Challenge: Data request, read-out IC50, for O=c1c(Cc2cccnc2)cn2c3cc(Br)ccc3c3cc(OCc4cncc(CO)c4)cc1c32 [Example 36]
Response given: 0.021

Challenge: Data request, read-out IC50, for COc1cc2c(=O)c(Cc3ccccc3)cn3c4cc(Br)ccc4c(c1)c23 [Example 39]
Response given: 0.026

Challenge: Data request, read-out IC50, for CCOC(=O)COc1cc2c(=O)c(Cc3cccnc3)cn3c4ccc(Br)cc4c(c1)c23 [Example 5]
Response given: 0.0055

Challenge: Data request, read-out IC50, for CC(=O)Oc1cc2c(=O)ccn3c4ccc(Br)cc4c(c1)c23 [Example 28]
Response given: 0.1

Challenge: Data request, read-out IC50, for O=C(O)COc1cc2c(=O)ccn3c4ccc(Br)cc4c(c1)c23 [Example 24]
Response given: 0.19

---

# TARGET_OR_SYSTEM: PDE type V (Canis lupus familiaris, UniProt O77746)
# Construct: By elution with a sodium chloride gradient (0 - 0.4 M), PDE types V and III were separated from the other isozymes; from tissue; host or cells: canine aorta
# TEST_PROTOCOL: PDE inhibiting activity, type V
# Format: biochemical, dog
# EXPERIMENTAL_CONDITIONS: Inhibition Activity IC50 (µM) Type V, PDE purified from canine aorta; 1 µM substrate cGMP or cAMP
READOUT_LABEL: IC50

Challenge: What reported IC50 corresponds to CCCc1nn(C)c2c(=O)[nH]c(-c3cc(S(=O)(=O)N4CCN(C)CC4)ccc3OCC)nc12.O=C(O)CC(O)(CC(=O)O)C(=O)O [sildenafil, reference compound] on PDE type V (Canis lupus familiaris, UniProt O77746)?
Response given: 0.0018 µM

---

# TEST_PROTOCOL: Absorption upon intranasal administration to rats
# Format: in vivo, Male wistar rats
# EXPERIMENTAL_CONDITIONS: male, Wistar, rat, in vivo, inhaled or intranasal, intranasal, Dose 1.0 mg/kg
READOUT_LABEL: MRT

Challenge: Data request, read-out MRT, for CCCc1nn(C)c2c(=O)[nH]c(-c3cc(S(=O)(=O)N4CCN(C)CC4)ccc3OCC)nc12.O=C(O)CC(O)(CC(=O)O)C(=O)O [sildenafil, reference compound]
Response given: 2 to 3 h

---

# TEST_PROTOCOL: Absorption by percutaneous administration in rats
# Assay type: in vivo
# EXPERIMENTAL_CONDITIONS: rat, in vivo, hairless rats, Dose 10 mg/kg
READOUT_LABEL: MRT
Answer format: value, then unit.

Challenge: Data request, read-out MRT, for CCCc1nn(C)c2c(=O)[nH]c(-c3cc(S(=O)(=O)N4CCN(C)CC4)ccc3OCC)nc12.O=C(O)CC(O)(CC(=O)O)C(=O)O [sildenafil, reference compound]
Response given: 14.7 h

---

# TEST_PROTOCOL: Absorption upon intranasal administration to rats
# Format: in vivo, Male wistar rats
# EXPERIMENTAL_CONDITIONS: male, Wistar, rat, plasma, inhaled or intranasal, intranasal, Dose 0.3 mg/kg
READOUT_LABEL: MRT

Challenge: Data request, read-out MRT, for CS(=O)(=O)O.O=c1c(Cc2cccnc2)cn2c3cc(Br)ccc3c3cc(OCCCO)cc1c32 [Example 52]
Response given: 2 to 3 h

---

# TEST_PROTOCOL: Absorption upon intranasal administration to rats
# Assay type: in vivo, Male wistar rats
# EXPERIMENTAL_CONDITIONS: male, Wistar, rat, plasma, inhaled or intranasal, intranasal, Dose 0.3 mg/kg
READOUT_LABEL: Tmax

Challenge: Data request, read-out Tmax, for CS(=O)(=O)O.O=c1c(Cc2cccnc2)cn2c3cc(Br)ccc3c3cc(OCCCO)cc1c32
Response given: 12 to 30 min

---

# TEST_PROTOCOL: Absorption by percutaneous administration in rats
# Assay type: in vivo
# EXPERIMENTAL_CONDITIONS: rat, in vivo, hairless rats, Dose 10 mg/kg
READOUT_LABEL: Tmax
Answer format: value, then unit.

Challenge: Data request, read-out Tmax, for CCCc1nn(C)c2c(=O)[nH]c(-c3cc(S(=O)(=O)N4CCN(C)CC4)ccc3OCC)nc12.O=C(O)CC(O)(CC(=O)O)C(=O)O [sildenafil, reference compound]
Response given: 1 h
